- Tested on: erythrocyte suspensions of human blood
- assayMethodText: Hemolytic activity, hemoglobin release
- Assay type: cell-based
- conditionDescription: peptide 50 μM (table prints 50 µM); human blood erythrocytes 5% v/v; absorbance 540 nm; percentage compared to melittin; three replicates
Peptide text beside a SMILES is read from it.
observedProperty: Hemolysis (%) at 50 µM
Numbers only, in %.

Before answering, review these 10 worked examples.
1) CC(C)C[C@@H]1NC(=O)[C@H](CCC(N)=O)NC(=O)[C@H](CCCCN)NC(=O)[C@H](CCCCN)NC(=O)[C@H](CC(C)C)NC(=O)[C@H](Cc2c[nH]c3ccccc23)NC(=O)[C@H](CCCCN)NC(=O)[C@H](CCCCN)NC(=O)[C@H](CCCCN)NC(=O)[C@H](CC(C)C)NC1=O [BPC146W, c(LLKKKWLKKQ)] (cyclo(KKKWLKKQLL)) : 4
2) CC(C)C[C@@H]1NC(=O)[C@H](CCC(N)=O)NC(=O)[C@H](CC(C)C)NC(=O)[C@H](CC(C)C)NC(=O)[C@H](CCCCN)NC(=O)[C@H](Cc2c[nH]c3ccccc23)NC(=O)[C@H](CCCCN)NC(=O)[C@H](CCCCN)NC(=O)[C@H](CCCCN)NC(=O)[C@H](CCCCN)NC1=O [BPC068W, c(LKKKKWKLLQ)] (cyclo(KKKKWKLLQL)) : 6
3) CC(C)C[C@@H]1NC(=O)[C@H](CCC(N)=O)NC(=O)[C@H](CCCCN)NC(=O)[C@H](CCCCN)NC(=O)[C@H](CCCCN)NC(=O)[C@H](Cc2c[nH]c3ccccc23)NC(=O)[C@H](CC(C)C)NC(=O)[C@H](CCCCN)NC(=O)[C@H](CC(C)C)NC(=O)[C@H](CCCCN)NC1=O [BPC156W, c(LKLKLWKKKQ)] (cyclo(KKKQLKLKLW)) : 1
4) CC(C)C[C@@H]1NC(=O)[C@H](CCCCN)NC(=O)[C@H](CCCCN)NC(=O)[C@H](Cc2c[nH]c3ccccc23)NC(=O)[C@H](CCCCN)NC(=O)[C@H](CCCCN)NC(=O)[C@H](CC(C)C)NC(=O)[C@H](CC(C)C)NC(=O)[C@H](CCCCN)NC(=O)[C@H](CCC(N)=O)NC1=O [BPC094W, c(KLLKKWKKLQ)] (cyclo(KKLQKLLKKW)) : 35
5) CC(C)C[C@@H]1NC(=O)[C@H](CCCCN)NC(=O)[C@H](CCCCN)NC(=O)[C@H](Cc2c[nH]c3ccccc23)NC(=O)[C@H](CCCCN)NC(=O)[C@H](CCCCN)NC(=O)[C@H](CC(C)C)NC(=O)[C@H](CC(C)C)NC(=O)[C@H](CC(C)C)NC(=O)[C@H](CCC(N)=O)NC1=O [BPC188W, c(LLLKKWKKLQ)] (cyclo(KKLQLLLKKW)) : 33
6) CC(C)C[C@@H]1NC(=O)[C@H](CCCCN)NC(=O)[C@H](CCCCN)NC(=O)[C@H](CCC(N)=O)NC(=O)[C@H](CC(C)C)NC(=O)[C@H](CCCCN)NC(=O)[C@H](CC(C)C)NC(=O)[C@H](Cc2c[nH]c3ccccc23)NC(=O)[C@H](CCCCN)NC(=O)[C@H](CCCCN)NC1=O [BPC074W, c(KKLKKWLKLQ)] (cyclo(KKLKKWLKLQ)) : 39
7) CC(C)C[C@@H]1NC(=O)[C@H](CCCCN)NC(=O)[C@H](CCCCN)NC(=O)[C@H](Cc2c[nH]c3ccccc23)NC(=O)[C@H](CC(C)C)NC(=O)[C@H](CCCCN)NC(=O)[C@H](CCCCN)NC(=O)[C@H](CC(C)C)NC(=O)[C@H](CCCCN)NC(=O)[C@H](CCC(N)=O)NC1=O [BPC084W, c(KLKKLWKKLQ)] (cyclo(KKLQKLKKLW)) : 54
8) CC(C)C[C@@H]1NC(=O)[C@H](CCC(N)=O)NC(=O)[C@H](CCCCN)NC(=O)[C@H](CCCCN)NC(=O)[C@H](CCCCN)NC(=O)[C@H](Cc2c[nH]c3ccccc23)NC(=O)[C@H](CC(C)C)NC(=O)[C@H](CC(C)C)NC(=O)[C@H](CCCCN)NC(=O)[C@H](CCCCN)NC1=O [BPC152W, c(LKKLLWKKKQ)] (cyclo(KKKQLKKLLW)) : 1
9) CC(C)C[C@@H]1NC(=O)[C@H](CCCCN)NC(=O)[C@H](Cc2c[nH]c3ccccc23)NC(=O)[C@H](CCCCN)NC(=O)[C@H](CC(C)C)NC(=O)[C@H](CCCCN)NC(=O)[C@H](CC(C)C)NC(=O)[C@H](CCCCN)NC(=O)[C@H](CCC(N)=O)NC(=O)[C@H](CCCCN)NC1=O [BPC016W, c(KLKLKWKLKQ)] (cyclo(KLKLKWKLKQ)) : 25
10) CC(C)C[C@@H]1NC(=O)[C@H](CCCCN)NC(=O)[C@H](CCCCN)NC(=O)[C@H](CCC(N)=O)NC(=O)[C@H](CCCCN)NC(=O)[C@H](CCCCN)NC(=O)[C@H](CC(C)C)NC(=O)[C@H](Cc2c[nH]c3ccccc23)NC(=O)[C@H](CC(C)C)NC(=O)[C@H](CCCCN)NC1=O [BPC130W, c(KKLKLWLKKQ)] (cyclo(KKLKLWLKKQ)) : 1

State the recorded Hemolysis (%) at 50 µM for every item in the following list.
1. CC(C)C[C@@H]1NC(=O)[C@H](CCCCN)NC(=O)[C@H](CCCCN)NC(=O)[C@H](CCCCN)NC(=O)[C@H](CCCCN)NC(=O)[C@H](CCC(N)=O)NC(=O)[C@H](CC(C)C)NC(=O)[C@H](CC(C)C)NC(=O)[C@H](CCCCN)NC(=O)[C@H](Cc2c[nH]c3ccccc23)NC1=O [BPC060W, c(KKKKLWKLLQ)] (cyclo(KKKKLWKLLQ))
2. CC(C)C[C@@H]1NC(=O)[C@H](CCCCN)NC(=O)[C@H](CCCCN)NC(=O)[C@H](CCC(N)=O)NC(=O)[C@H](CCCCN)NC(=O)[C@H](CCCCN)NC(=O)[C@H](CC(C)C)NC(=O)[C@H](Cc2c[nH]c3ccccc23)NC(=O)[C@H](CCCCN)NC(=O)[C@H](CC(C)C)NC1=O [BPC136W, c(KKLLKWLKKQ)] (cyclo(KKLLKWLKKQ))

22
1

Source listed as paper PMC6150173.
